organism: Rattus norvegicus; assay: Open TG-GATES - Regimen: Single; type: toxicity, organism-based, Sprague-Dawley; set-up: regimen Single, gender Male, age 6 weeks; settings: in vivo, po, 10 mg/kg, 9 h, tissue Blood, route gavage, dose level Low
# key: entry, value: Mono
measurementLabel: Mono

molecule	measured
CC1=C(/C=C/C(C)=C/C=C/C(C)=C/CO)C(C)(C)CCC1 [RETINOL]	2.4%
CN(C)CCN(Cc1cccs1)c1ccccn1	2.2%
CN(C)CCCN1c2ccccc2CCc2ccc(Cl)cc21 [CLOMIPRAMINE]	2.2%

---

organism: Rattus norvegicus; assay: Open TG-GATES - Regimen: Daily Repeat; format: toxicity, organism-based, Sprague-Dawley; design: regimen Daily Repeat, gender Male, age 6 weeks; details: in vivo, po, 0 mg/kg, […], tissue Blood, route gavage, dose level Control, time 28 day

molecule	Mono / %
COc1ccc2[nH]c([S+]([O-])Cc3ncc(C)c(OC)c3C)nc2c1 (stereo not drawn)	2
COC1=CC(=O)C[C@@H](C)[C@]12Oc1c(Cl)c(OC)cc(OC)c1C2=O	2
CCCNC(=O)NS(=O)(=O)c1ccc(Cl)cc1 [CHLORPROPAMIDE]	2

Value source: ChEMBL document CHEMBL3885861
